Reference source for all entries: the supplement of paper PMC6897291

growth inhibition by drug plus 177Lu-lilotomab satetraxetan values, listed per item
# Test system: U-2932
# ASSAY_DETAILS: growth inhibition by drug plus 177Lu-lilotomab satetraxetan (1 - RLU/untreated control) (fraction); higher = stronger inhibition
# STATED_CONDITIONS: 10 nM; time (day): 5; 177Lu-lilotomab satetraxetan 1 ug/ml
Where a name gives a salt, the structure may show the parent alone.
Give a plain numeric answer without units written out.

As a guide, the following entries are already answered.
1) CN(CCOc1ccc(CC2SC(=O)NC2=O)cc1)c1ccccn1 (stereo not given): 0.0405
2) Cc1nnc(C(C)C)n1C1C[C@H]2CC[C@@H](C1)N2CC[C@H](NC(=O)C1CCC(F)(F)CC1)c1ccccc1 (stereo in doubt): 0.143
3) O=C(c1ccc(OCCN2CCCCC2)cc1)c1c(-c2ccc(O)cc2)sc2cc(O)ccc12 [Evista (Raloxifene Hydrochloride)]: 0.0239
4) O=C1NC(=O)/C(=C\c2cccc(C(F)(F)F)c2)S1: 0.0122

Req: For the compound NC(=O)c1ccc(I)c([N+](=O)[O-])c1 , what growth inhibition by drug plus 177Lu-lilotomab satetraxetan is on record?
Resp: 0.0467
